# protocol_summary: yeast display, Sf9 membrane polyspecificity reagent, FACS + sequencing; frameworks hold sequencing errors
observation_type: polyreactivity (PSR sort gate)

QVQLVESGGGLVQAGGRLRLSCAASGSISNRYAMGWYRQAPGKERELVAAISTGGGTTYYADSVKGRFTISRDNAKNTVYLQMNSLKPEDTAVYYCAADDWRYYRELDYWGQGTQVTVSS low polyreactivity
QVQLVESGGGLVQAGGSLRLSCAASGSIFGYYAMGWYRQAPGKERELVAAISGIGGSTYYADSVKGRFTISRDNAKNTVYLQMNSLKPEDTAVYYCAKARPHVGGGGDYWGQGTQVTVSS low polyreactivity
QVQLVESGRGLVQAGVSLRLSCAASGSIFEQYAMGWYRQAPGKERELVAAITISGGGTFYADSVKGRFTISRDNAKNTVYLQMNSLKPEDTAVYYCAKRGYYFWSRKYGYWGQGTQVTVSS low polyreactivity

###

# protocol_summary: yeast display, Sf9 membrane polyspecificity reagent, FACS + sequencing; frameworks hold sequencing errors
observation_type: polyreactivity (PSR sort gate)

QVQLVESGGGLVQAGGSLRLSCAASGRTFRINAMGWYRQAPGKERELVAAINDGGDTYADSVKGRFTISRDNAKNTVYLQMNSLKPEDTAVYYCAVRILTNRWYYGYWGQGTQVTVSS low polyreactivity
QVQLVESGGGLVQAGGSLRLSCAASGITFIYYAMGSYRQAPGKERELVAAISKSGGRTYYADSVKGRFTISRDNAKNTVYLQMNSLKPEDSAVYYCNKLVGDDTSLYDYWGQGTQVTVSS high polyreactivity
QVQLVESGGGLVQAGGSLRLSCAASGFIFPYYAMGLYRQAPGKERELVAAITFSATRTYYADSVKGRFTISRDNAKNTVYLQMNSLKPEDTAVYYCKARGGVYGSYFEFNYWRQGTQVTVSS low polyreactivity
QVQLVESGGGLVQAGGSLRLSCAASGRTFGSYVMGWYRQAPGKERELVAAISSRGTRTYYADSVKGRFTISRDNAKNTVYLQMNSLKPEDTAVYYCAAEWPYRFQYGEMDYWGQGTQVTVSS high polyreactivity

Dear reader, for each entry below, please note its polyreactivity (PSR sort gate).
1. QVQLVESGGGLVQAGGSLRLSSAASGRTFYANAMGWYRQAPRKERELVAAISSGGITNYADSVKGRFTISRDNAKNTVYLQMNSLKPEDTAVYYCPYDYWGQGTQVTVSS
2. QVQLVESGGGLVQAGGSLRLSCAASGRTFYKNAMGWYRQAPGKEREFVASISVSGGRTYYADSVKGRFTISRDNAKNTVYLQMNSLKQEDTAVYYCNARASPLSQRDYWGQGTQVTVSS
3. QVQLVESGGGLVQAGGSLRLSCAASGSTFLENAMGWYRQAPGKEREFVAAISKSGGSTSYADSVKGRFTISRDNAKNTVYLQMNSLKPEDTAVYYCATRRSRAYDYWGQGTQVTVSS
4. QVQLVESGGGLVQAGGSLRLSCAASGRTFLTNTMGWYRQAPGKERELVAAISSGGSTKYADSVKGRFTISRDNAKNTVYLQMNSLKPEDTAVYYCAATGWRYGYKYYYWGQGTQVNVSS
5. QVQLVESGGGLVQAGGSLRLSCAASGITSSLNAMGWYRQAPGKERELVAAISWRGGSTYYADSVKGRFTISRDNAKNTVNLRMHSLKPEDTAVYYCNVVKRSFRYDYWGQGTQVTVSS
6. QVQLVESGGGLVQAGGSLRLSCAASGYTFKTYAMGWYRQAPVKERELVAAISGSGGSTYYADSVKGRFTISRDNAKNTVYLQMNSLKPEDTAVYYCNASPTTTPNFWRYDYWGQGTQVTVSS
7. QVQLVESGGGLVQAGGSLRLSCAASGNIFYTNAMGWYRQAPGKERELVATISRSVGSTYYADSVKGRFTISRDNAKNTVYLQMNSLKPEDTAVYYCAASRLLSALTAYSWGFNYWGQGSQVTVSS

1: low polyreactivity; 2: low polyreactivity; 3: high polyreactivity; 4: high polyreactivity; 5: high polyreactivity; 6: high polyreactivity; 7: high polyreactivity

###

# protocol_summary: yeast display, Sf9 membrane polyspecificity reagent, FACS + sequencing; frameworks hold sequencing errors
observation_type: polyreactivity (PSR sort gate)

Examples from the recorded data:
QVQLVESGGGLVQAGGSLRLSCAASGGTFSSNAMGWYRQAPGKERELVAAITWSGGSTYYADSVKGRFTISRDNAKNTVYLQMNSLKPEDTAVYYCNARNQWRTVGKYDYWGQGTQVTVSS low polyreactivity
QVQLVESGGGLVQAGGSLRITCAASGSTFYGKSMGLYRQAPGKERELVAAISRGGGSTYYADSVKGRFTISRDNAKNTVYLQMNSLIPEDTAVYYCAGTRYLHPWYYPYYYWGQGTQVTVSS low polyreactivity
QVQLVESGVGLVQAGGSLRLSCAASGLIIYAYVMGWYRQAPGKERELVATISRSGARTHYADSVKGRFTISRDNAKNTVYLQMNSLKPEDTAVYYCAADVYLSSYEKYGYWGQGTQVTVSS high polyreactivity
QVQLVESGGGLVQAGGSLRLSCAASGSIFYINAMGWYRQAPGKEREFVATITWSGDSTYYADSVKGRFTISRDNAKNTVYLQMNSLKPDDTAVYYCNARKQYPSYVDWEYDYWGQGTQVTVSS low polyreactivity

Dear reader, for each entry below, please note its polyreactivity (PSR sort gate).
1. QVQLVESGGGLVQAGGSLRLSCAASGFTFPLYAMGWYRQAPGKERELVAVISRSGGSTYYADSVKGRFTISRDNAKNTVYLQMNSLKPEDTAVYYCAARLVPRSPERGNYDYWGQGTQVTVSS
2. QVQLVESGGGLVQAGGSLRLSCAASGSTFTDYAMGWYRQAPGKERELVAAIRFSGGSTYYADSVKGRFTISRDNAKTTVYLQMNSLKPEDTAVYYCAAAGYPWLDSWGQGTQVTVSS
3. QVQLVESGGGLVQAGGSLRLSCAASGRIFKGYSMGGYRQAPGTETELVASIRTGGTTNYADSVKGRFTISRDNAKNTVYLQMNSLKPEDTAVYYCNRGYYSYYGRYYYWGQGTQVTVSS
4. QVQLVESVGGLVQAGGSLRLSCAASGLTFNHYAMGWYRQAPGKEMELVAAISKSGSSTYYADSVKGRFTISRDNAKNTVYLQMNSLKPEDTAVYYCAARSWDPALYDYWGQGTQVTVSS
5. QVQLVESGGGLVQAGGSLRLSCAASGIIFRLYGMGWYIQAPGKEREFVATITWRGGRTNYADSVKGRFTISRDNAKNTVYLQMNSLKPEDTAVYYCAAGSAPSYWGGWYYERDYWGQGTQVTVSS
6. QVQLVESGGGLVQAGGSLRLSCAASGRTFLPNAMGWYRQAPGKERELVAVITSGGSTNYADSVKGRFTISRDNAKNTVYLQMNSLKPEDTAVYYCAADWWRVEMEYWGQGTQVTVSS
7. QVQLVESGGGLVQAGGSLRLSCAASGSNFTVYAMGWYRQAPGKDGELVAAISYNGGCTYYADSVKGRFTISRDNAKNTVYLQMNSLKPEDTAVYYCAARYRDRGRRAEYEYWGQGTQVTVSS

["high polyreactivity", "low polyreactivity", "high polyreactivity", "high polyreactivity", "low polyreactivity", "low polyreactivity", "high polyreactivity"]

Measured polyreactivity (PSR sort gate), QVQLVESGGGLVQAGGSLRLSCAASGLIFYHNARGWYRQAPGKERELVAAITASGGSTYYADSVKGRFTISRDNAKNTVYFQMNSLKPEDTAVYYCAADGPLDSDLDYWGQGTQVTVSS : low polyreactivity

###

# protocol_summary: yeast display, Sf9 membrane polyspecificity reagent, FACS + sequencing; frameworks hold sequencing errors
observation_type: polyreactivity (PSR sort gate)

QVQLVESGGGLVQAGGSLRLSCAASGSIFDSYVMGWYRQAPGKERELVAAITYSGGSTYADSVMGRFTISRDNAKNTVYLQMNSVKPEDTAVYYCAAASYFYLYLLEDYWGQGTQVTVSS low polyreactivity
QVQLVESGGGLVQAGGRLRLSCAASGRTFSPYAMGWYREAPGKEREFVAASTWSAGRTYYADSVKGRFTISRDNAKNTVYLQMNSLKPEDTAVYYCNARDRSITYPRYDYWGQGTQVTVSS high polyreactivity
QVQLVESGGGLVQAGGSLRLSCAASGSIIHDNAMGWYRQAPGKERELVAAINRGGSTHYADSVKGRFTISRDNAKNTVYLQMNSLKPEDTAVYYCAADGIRPEVGYWGQGTQVTVSS low polyreactivity
QVQLVESGGGLVQAGGSLRLSCAASGSIITWYTMGWYRQATGKERELVASISSGGTTKYADSVKGRFTISRDNAKNTVYLQMNCLKPEDTAVYYCAAEYIAYYGTGTYYGLDYWGQGTQVTVSS low polyreactivity
QVQLVESGGGLVQAGGSLRFSCAASGRTFTVYAMGWYRQAPGKERELVAAINYSVGSTYYADSVKGRFTISRDNAKNTVYLQMNSLKPEDTAVYYCAADLYHFSYSYSYIRYDYWGQGTQVTVSS low polyreactivity

Dear reader, for each entry below, please note its polyreactivity (PSR sort gate).
1. QVQLVESGGGLVQAGGSLRLSCAASGNIFYNGMGWYRQAPGKERELVAAIRGSAGRTYADSVKGRFTISRDNAKNTVYLQMNILKPEDTAVYYCAAAKRYYSEMYWGQGTQVTVSS
2. QVQLVESGGGLVHAGGSLRLSCAASGSIFVVYTMGWYRQAPGQERELVAAITQNGGSSTYYADSVKGRFTISRDNAKNTVYLQMNSLKPEDTAVYYCNKDILSPVVRIFKYGYDMDYWGQGTQVTVSS
3. QVPLVESGGGLVQGGGSLRLSCAASGSIFRGNAMGWYRQAPGKERELVAAISKSGGSTYYADSVKGRFTISRDNAKNTVYLHMNSLKPEDTAVYYCAARTTYLYGRYYWGQGTQVTVSS

1. high polyreactivity
2. low polyreactivity
3. low polyreactivity

Measured polyreactivity (PSR sort gate), QVQLVESGGGLVQAGGSLRLSCAASGRIFWTNDMGWYRQAPGKERELVAVISSDTGSTDYADSVKGRFTISRDNAKNTVYLQMNSLKPEDTAVFYCNKRGLSRVNYWGQGTQVTVSS : low polyreactivity
